Biological target: human T-bet (Homo sapiens, UniProt Q9UL17)
Construct: expressed in transfected cells; host or cells: engineered HEK cells (HEKT-bet)
Experiment: HEKT-bet-luc assay (T-bet dependent luciferase reporter in engineered HEK cells)
Format: cell-based
Details: Table 4; HEKT-bet cells, compound 24 hours; IC50 normalized to reference ER-213038; read-out: IC50
Property Measured: IC50 (nM)

Solved cases (3 shown):
{"Compound": "COCCN1C(=O)N(Cc2cccc(OC)c2)C(=O)C12CCN(Cc1cc(OC)ccc1F)CC2", "Readout Unit": "nM", "IC50": 452}
{"Compound": "COCCN1C(=O)N(Cc2cccc(OC)c2)C(=O)C12CCN(Cc1cccc(N(C)C)c1)CC2", "Readout Unit": "nM", "IC50": 528}
{"Compound": "COCCN1C(=O)N(Cc2cccc(OC)c2)C(=O)C12CCN(Cc1cccc(-c3ccc(NC(C)=O)cc3)c1)CC2", "Readout Unit": "nM", "IC50": 414}

A = COc1cccc(CN2C(=O)N(Cc3cccc(-n4cccc4)c3)C3(CCN(Cc4cccc5ccccc45)CC3)C2=O)c1
B = CCN1C(=O)N(CCCOc2ccccc2)C(=O)C12CCN(Cc1cccc(OC)c1)CC2
Query: // which entry has the larger IC50 value, A or B ? Your answer should be the label attached to the chosen record.
Result: B

----------
Molecular target: human T-bet (Homo sapiens)
Construct: expressed in transfected cells; host or cells: engineered HEK cells (HEKT-bet)
Sequence (Q9UL17 1-535): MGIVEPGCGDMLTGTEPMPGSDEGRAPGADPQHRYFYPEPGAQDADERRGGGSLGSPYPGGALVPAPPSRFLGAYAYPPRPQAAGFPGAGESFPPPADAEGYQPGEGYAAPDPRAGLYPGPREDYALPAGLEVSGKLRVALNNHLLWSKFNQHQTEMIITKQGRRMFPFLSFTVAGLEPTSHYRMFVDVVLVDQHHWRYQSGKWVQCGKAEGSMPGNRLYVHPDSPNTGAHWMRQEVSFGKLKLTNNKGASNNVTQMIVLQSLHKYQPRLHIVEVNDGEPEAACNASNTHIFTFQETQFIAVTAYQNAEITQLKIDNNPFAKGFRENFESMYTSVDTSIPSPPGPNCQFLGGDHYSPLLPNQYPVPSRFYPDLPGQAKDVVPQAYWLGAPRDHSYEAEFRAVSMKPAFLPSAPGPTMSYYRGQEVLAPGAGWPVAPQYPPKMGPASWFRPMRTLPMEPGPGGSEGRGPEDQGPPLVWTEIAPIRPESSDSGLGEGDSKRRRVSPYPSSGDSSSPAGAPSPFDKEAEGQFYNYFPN
Assay: HEKT-bet-luc assay (T-bet dependent luciferase reporter in engineered HEK cells)
Type: cell-based
Settings: Table 4; HEKT-bet cells, compound 24 hours; IC50 normalized to reference ER-213038; read-out: IC50
Property Measured: IC50 (nM)

a = COc1cccc(CN2C(=O)N(CC=C(C)C)C3(CCN(Cc4cccc5ccccc45)CC3)C2=O)c1 [Example 265]
b = COc1cccc(CN2C(=O)N(CCCO)C3(CCN(Cc4cccc5ccccc45)CC3)C2=O)c1 [Example 216]
c = COCCN1C(=O)N(Cc2ccc3ccccc3c2)C(=O)C12CCN(Cc1cc(OC)cc(OC)c1)CC2 [Example 151]
Query: Ranking by IC50 (descending) is requested for the entries above. // rank by listing labels in the order requested
Result: a, b, c
